Target: MMP-9 (Homo sapiens)
Construct: purchased Sino Biological 10327-HNAH
Sequence (P14780 107-707 limits assumed): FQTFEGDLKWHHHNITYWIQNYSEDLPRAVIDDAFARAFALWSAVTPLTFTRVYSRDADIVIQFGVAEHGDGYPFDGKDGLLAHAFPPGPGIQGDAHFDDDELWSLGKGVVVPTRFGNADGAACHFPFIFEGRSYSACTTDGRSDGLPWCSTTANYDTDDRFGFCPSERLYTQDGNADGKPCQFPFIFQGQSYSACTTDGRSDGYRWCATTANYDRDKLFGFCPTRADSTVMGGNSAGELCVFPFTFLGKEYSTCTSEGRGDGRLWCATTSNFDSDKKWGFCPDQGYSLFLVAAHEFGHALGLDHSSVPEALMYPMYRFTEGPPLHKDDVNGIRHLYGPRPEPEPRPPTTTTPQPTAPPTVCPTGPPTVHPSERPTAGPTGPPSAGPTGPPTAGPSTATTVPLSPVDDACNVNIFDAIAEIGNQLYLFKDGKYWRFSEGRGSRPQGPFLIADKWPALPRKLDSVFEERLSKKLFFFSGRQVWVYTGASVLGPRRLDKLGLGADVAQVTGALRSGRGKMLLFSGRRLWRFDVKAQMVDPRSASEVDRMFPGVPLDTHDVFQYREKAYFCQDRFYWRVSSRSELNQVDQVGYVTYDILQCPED
Assay: MMP-9 inhibition assay (fluorogenic peptide substrate)
Type: biochemical
Design: scale not given here
Conditions: MMP-9; concentration 243.80 µM
readout-label: remaining enzyme activity (% of control)
One number for each entry.

compound	system-under-test	remaining enzyme activity (% of control)
Cc1cc(=O)[nH]c(-n2nc(C)c(CCC(=O)NCCOCCOCCNC(=O)CCC(=O)NCc3c[nH]nn3)c2C)n1 [693+787 Linker 10]	MMP-9 (Homo sapiens)	47.49
O=C(C=CCCCCNC(=O)c1cncc(O)c1)CC(=O)NCC12CC3CC(CC(C3)C1)C2 [66+828 Linker 12]	MMP-9 (Homo sapiens)	18.36
O=C(CCCCCCC(=O)NCC12CC3CC(CC(C3)C1)C2)NCc1c[nH]nn1 [66+787 Linker 4]	MMP-9 (Homo sapiens)	93.01
O=C(CNC(=O)NC12CC3CC(CC(C3)C1)C2)NCCOCCOCCNC(=O)c1cncc(O)c1 [66+828 Linker 10]	MMP-9 (Homo sapiens)	71.42

Which remaining enzyme activity (% of control) value is on record for Cc1cc(=O)[nH]c(-n2nc(C)c(CCC(=O)NCCOCCOCCNC(=O)c3cncc(O)c3)c2C)n1 [693+828 Linker 10] ?
42.77

----------
Target: MMP-9 (Homo sapiens)
Construct: purchased Sino Biological 10327-HNAH
Assay: MMP-9 inhibition assay (fluorogenic peptide substrate)
Assay type: biochemical
Design: scale not given here
Settings: MMP-9; concentration 500.00 µM
Define the label as class 1 when remaining enzyme activity (% of control) is strictly less than 60 and as class 0 in all remaining cases.

structure-smiles	label-value
Cc1cc(=O)[nH]c(-n2nc(C)c(CCC(=O)NCCNC(=O)c3cnc4c(c3)nc(O)n4C)c2C)n1	class 1

Quick check: remaining enzyme activity (% of control) of `Cn1c(O)nc2cc(C(=O)NCCCCCCCCNC(=O)CNC(=O)NC34CC5CC(CC(C5)C3)C4)cnc21` under 60?
class 0

State whether 60 exceeds remaining enzyme activity (% of control) recorded for `Cn1c(O)nc2cc(C(=O)NCCSCC(=O)NCC34CC5CC(CC(C5)C3)C4)cnc21` .
class 0

Criterion: remaining enzyme activity (% of control) strictly below 60. Is it met by `Cn1c(O)nc2cc(C(=O)NCCCC/C=C/C(=O)CC(=O)NCC34CC5CC(CC(C5)C3)C4)cnc21` ?
class 0

Is remaining enzyme activity (% of control) of `Cc1cc(=O)[nH]c(-n2nc(C)c(CCC(=O)NCCNC(=O)CC(=O)C=CCCCCNC(=O)c3cnc4c(c3)nc(O)n4C)c2C)n1` strictly below 60?
class 1

Find out if reported remaining enzyme activity (% of control) for `Cc1cc(=O)[nH]c(-n2nc(C)c(CCC(=O)NCCSCC(=O)NCCNC(=O)c3cnc4c(c3)nc(O)n4C)c2C)n1` is less than 60
class 1

For `Cc1cc(=O)[nH]c(-n2nc(C)c(CCC(=O)NCCCCCCCCNC(=O)c3cnc4c(c3)nc(O)n4C)c2C)n1` , is the recorded remaining enzyme activity (% of control) below the cut-off of 60?
class 0

Strictly below 60 in remaining enzyme activity (% of control)? `Cn1c(O)nc2cc(C(=O)NCCOCCOCCNC(=O)CNC(=O)NC34CC5CC(CC(C5)C3)C4)cnc21`
class 0

Lab note: confirm whether the reported remaining enzyme activity (% of control) for this compound is below 60, equality not counting. compound: `Cn1c(O)nc2cc(C(=O)NCC34CC5CC(CC(C5)C3)C4)cnc21`
class 1

Quick check: does `Cc1cc(=O)[nH]c(-n2nc(C)c(CCC(=O)NCCOCCOCCNC(=O)c3cnc4c(c3)nc(O)n4C)c2C)n1` have remaining enzyme activity (% of control) under 60?
class 1
